- experimental_system: human δ-opioid receptor, OPRD (Homo sapiens, UniProt P41143)
- Construct: host or cells: HEK-293 overexpressing β-arrestin2 fused to a β-galactosidase fragment
- Sequence (P41143 whole entry, the tested form may be a part): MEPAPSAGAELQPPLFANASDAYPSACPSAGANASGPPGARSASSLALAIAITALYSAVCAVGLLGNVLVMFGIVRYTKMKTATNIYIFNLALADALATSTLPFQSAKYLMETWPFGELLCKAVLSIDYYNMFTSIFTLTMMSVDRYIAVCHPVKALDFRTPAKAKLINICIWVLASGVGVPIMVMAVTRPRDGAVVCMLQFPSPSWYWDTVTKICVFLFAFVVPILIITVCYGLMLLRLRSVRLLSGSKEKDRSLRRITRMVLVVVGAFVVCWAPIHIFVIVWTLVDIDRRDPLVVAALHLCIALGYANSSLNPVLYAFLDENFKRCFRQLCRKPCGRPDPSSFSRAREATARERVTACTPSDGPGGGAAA
- experiment: cAMP accumulation assay (Gi pathway), OPRD cell line
- Type: cell-based
- details: Table 1; cAMP; read-out: OPRD Gi EC50
Hi there, I'd appreciate the recorded EC50 for every entry that follows.
Your answer should be a plain number; it is taken to be in µM.

Query: For CN(C)C(CNC(=O)Cc1ccc2c(c1)OCCO2)c1ccccc1 (racemic) , what is its reported EC50?
Result: 4.16

Query: For Cc1ccccc1NC(=O)NCC(c1ccc2c(c1)CCO2)N(C)C (racemic) , what is its reported EC50?
Result: 8.37

Query: For C[C@@H](Cc1ccsc1)NC(=O)NC[C@H](Cc1ccc(O)cc1)N(C)C [PZM21, reference compound] , what is its reported EC50?
Result: 0.23

Query: For CN1CCc2cc(C(CNC(=O)Nc3ccc(F)cc3)N(C)C)ccc21 (racemic) , what is its reported EC50?
Result: 1.05

* * *

- experimental_system: human δ-opioid receptor, OPRD (Homo sapiens, UniProt P41143)
- Construct: host or cells: HEK-293 overexpressing β-arrestin2 fused to a β-galactosidase fragment
- experiment: cAMP accumulation assay (Gi pathway), OPRD cell line
- Type: cell-based
- details: Table 1; cAMP concentration-response curve
Label Condition met for high-side OPRD Gi Hill slope (at or above 1) and Condition not met for low-side OPRD Gi Hill slope (below it).

Query: Dear colleague, could you confirm whether CN1CCc2cc(C(CNC(=O)Nc3ccc(F)cc3)N(C)C)ccc21 (racemic) has OPRD Gi Hill slope at or above 1?
Result: Condition met

Query: Dear colleague, could you confirm whether C[C@@H](Cc1ccsc1)NC(=O)NC[C@H](Cc1ccc(O)cc1)N(C)C [PZM21, reference compound] has OPRD Gi Hill slope at or above 1?
Result: Condition not met

Query: Dear colleague, could you confirm whether COc1ccsc1CNCC[C@@]1(c2ccccn2)CCOC2(CCCC2)C1 [TRV130, reference compound] has OPRD Gi Hill slope at or above 1?
Result: Condition met

Query: Dear colleague, could you confirm whether CN(C)C(CNC(=O)Cc1ccc2c(c1)OCCO2)c1ccccc1 (racemic) has OPRD Gi Hill slope at or above 1?
Result: Condition met

Query: Dear colleague, could you confirm whether Cc1ccccc1NC(=O)NCC(c1ccc2c(c1)CCO2)N(C)C (racemic) has OPRD Gi Hill slope at or above 1?
Result: Condition met

* * *

- experimental_system: human μ-opioid receptor, OPRM (Homo sapiens)
- Construct: host or cells: HEK-293 overexpressing β-arrestin2 fused to a β-galactosidase fragment
- Sequence (P35372 whole entry, the tested form may be a part): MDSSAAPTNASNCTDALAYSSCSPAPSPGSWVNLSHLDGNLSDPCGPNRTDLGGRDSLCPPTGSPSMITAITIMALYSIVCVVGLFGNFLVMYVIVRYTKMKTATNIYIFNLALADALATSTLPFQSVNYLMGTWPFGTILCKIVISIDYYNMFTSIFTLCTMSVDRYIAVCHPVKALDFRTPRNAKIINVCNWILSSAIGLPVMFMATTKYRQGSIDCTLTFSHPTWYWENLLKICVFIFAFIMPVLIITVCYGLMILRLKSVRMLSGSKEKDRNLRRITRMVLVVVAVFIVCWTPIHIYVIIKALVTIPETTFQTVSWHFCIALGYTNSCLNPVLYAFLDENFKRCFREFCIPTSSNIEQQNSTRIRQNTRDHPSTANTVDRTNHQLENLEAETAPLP
- experiment: Dominant assay: cAMP assay with/without irreversible antagonist β-FNA, OPRM cell line
- Type: cell-based
- details: no addition of β-FNA; Example 3, Tables 5-7; read-out: OPRM Gi β-FNA (−) Emax (%)
endpoint_label: Emax (%)
Your answer should be a plain number; it is taken to be in %.

Query: Could you share what Emax was measured for Cc1ccccc1NC(=O)NCC(c1ccc2c(c1)CCO2)N(C)C (racemic) [Compound 3] , tested on human μ-opioid receptor, OPRM (Homo sapiens)?
Result: 97.9

Query: Could you share what Emax was measured for CN(C)C(CNC(=O)Cc1ccc2c(c1)OCCO2)c1ccccc1 (single isomer, unassigned) [Compound 4] , tested on human μ-opioid receptor, OPRM (Homo sapiens)?
Result: 82.8

Query: Could you share what Emax was measured for CN1CCc2cc(C(CNC(=O)Nc3ccc(F)cc3)N(C)C)ccc21 (single isomer, unassigned) [Compound 6] , tested on human μ-opioid receptor, OPRM (Homo sapiens)?
Result: 106

Query: Could you share what Emax was measured for COc1ccsc1CNCC[C@@]1(c2ccccn2)CCOC2(CCCC2)C1 [TRV130, reference compound] , tested on human μ-opioid receptor, OPRM (Homo sapiens)?
Result: 89.5

Query: Could you share what Emax was measured for Cc1ccccc1NC(=O)NCC(c1ccc2c(c1)CCO2)N(C)C (single isomer, unassigned) [Compound 8] , tested on human μ-opioid receptor, OPRM (Homo sapiens)?
Result: 84.7

Query: Could you share what Emax was measured for CN(C)C(CNC(=O)Cc1ccc2c(c1)OCCO2)c1ccccc1 (racemic) [Compound 1] , tested on human μ-opioid receptor, OPRM (Homo sapiens)?
Result: 101

Query: Could you share what Emax was measured for CN1CCc2cc(C(CNC(=O)Nc3ccc(F)cc3)N(C)C)ccc21 (racemic) [Compound 2] , tested on human μ-opioid receptor, OPRM (Homo sapiens)?
Result: 98.6

* * *

- experimental_system: human δ-opioid receptor, OPRD (Homo sapiens, UniProt P41143)
- Construct: host or cells: HEK-293 overexpressing β-arrestin2 fused to a β-galactosidase fragment
- experiment: Dominant assay: cAMP assay with/without irreversible antagonist β-CNA, OPRD cell line
- Format: cell-based
- details: no addition of β-CNA; Example 3, Tables 5-7
endpoint_label: OPRD Gi β-CNA (−) Emax (%)
Report field: quantity (unit follows the number).

Query: For CN1CCc2cc(C(CNC(=O)Nc3ccc(F)cc3)N(C)C)ccc21 (single isomer, unassigned) [Compound 7] , what is its reported OPRD Gi β-CNA (−) Emax (%)?
Result: 98.3%

Query: For Cc1ccccc1NC(=O)NCC(c1ccc2c(c1)CCO2)N(C)C (single isomer, unassigned) [Compound 8] , what is its reported OPRD Gi β-CNA (−) Emax (%)?
Result: 95.54%

Query: For CN(C)C(CNC(=O)Cc1ccc2c(c1)OCCO2)c1ccccc1 (single isomer, unassigned) [Compound 5] , what is its reported OPRD Gi β-CNA (−) Emax (%)?
Result: 111%

Query: For CN1CCc2cc(C(CNC(=O)Nc3ccc(F)cc3)N(C)C)ccc21 (single isomer, unassigned) [Compound 6] , what is its reported OPRD Gi β-CNA (−) Emax (%)?
Result: 128.1%

Query: For Cc1ccccc1NC(=O)NCC(c1ccc2c(c1)CCO2)N(C)C (single isomer, unassigned) [Compound 9] , what is its reported OPRD Gi β-CNA (−) Emax (%)?
Result: 66.82%

Query: For CN(C)C(CNC(=O)Cc1ccc2c(c1)OCCO2)c1ccccc1 (single isomer, unassigned) [Compound 4] , what is its reported OPRD Gi β-CNA (−) Emax (%)?
Result: 20.59%

Query: For C[C@@H](Cc1ccsc1)NC(=O)NC[C@H](Cc1ccc(O)cc1)N(C)C [PZM21, reference compound] , what is its reported OPRD Gi β-CNA (−) Emax (%)?
Result: 95.97%

* * *

Hi there, I'd appreciate the recorded EC50 for every entry that follows.
- experimental_system: human μ-opioid receptor, OPRM (Homo sapiens)
- Construct: host or cells: HEK-293 overexpressing β-arrestin2 fused to a β-galactosidase fragment
- experiment: Dominant assay: cAMP assay with/without irreversible antagonist β-FNA, OPRM cell line
- Type: cell-based
- details: no addition of β-FNA; repeated dominant assay, Example 4, Tables 8-10; read-out: OPRM Gi β-FNA (−) EC50
Your answer should be a plain number; it is taken to be in µM.

Query: For CN(C)C(CNC(=O)Cc1ccc2c(c1)OCCO2)c1ccccc1 (racemic) [Compound 1] , what is its reported EC50?
Result: 1.16

Query: For CN1CCc2cc(C(CNC(=O)Nc3ccc(F)cc3)N(C)C)ccc21 (single isomer, unassigned) [Compound 7] , what is its reported EC50?
Result: 2.31

Query: For CN(C)C(CNC(=O)Cc1ccc2c(c1)OCCO2)c1ccccc1 (single isomer, unassigned) [Compound 4] , what is its reported EC50?
Result: 9.4

Query: For CN(C)C(CNC(=O)Cc1ccc2c(c1)OCCO2)c1ccccc1 (single isomer, unassigned) [Compound 5] , what is its reported EC50?
Result: 1.65

Query: For Cc1ccccc1NC(=O)NCC(c1ccc2c(c1)CCO2)N(C)C (racemic) [Compound 3] , what is its reported EC50?
Result: 0.036

Query: For CN1CCc2cc(C(CNC(=O)Nc3ccc(F)cc3)N(C)C)ccc21 (single isomer, unassigned) [Compound 6] , what is its reported EC50?
Result: 1.86

Query: For Cc1ccccc1NC(=O)NCC(c1ccc2c(c1)CCO2)N(C)C (single isomer, unassigned) [Compound 9] , what is its reported EC50?
Result: 0.0713

Query: For CN1CCc2cc(C(CNC(=O)Nc3ccc(F)cc3)N(C)C)ccc21 (racemic) [Compound 2] , what is its reported EC50?
Result: 1.7

Query: For Cc1ccccc1NC(=O)NCC(c1ccc2c(c1)CCO2)N(C)C (single isomer, unassigned) [Compound 8] , what is its reported EC50?
Result: 0.219

* * *

- experimental_system: human δ-opioid receptor, OPRD (Homo sapiens)
- Construct: host or cells: HEK-293 overexpressing β-arrestin2 fused to a β-galactosidase fragment
- experiment: Dominant assay: cAMP assay with/without irreversible antagonist β-CNA, OPRD cell line
- Format: cell-based
- details: no addition of β-CNA; repeated dominant assay, Example 4, Tables 8-10; read-out: OPRD Gi β-CNA (−) EC50
endpoint_label: pEC50
Interpret pEC50 as the negative base-10 log of the concentration measured in mol/L.

Query: For CN(C)C(CNC(=O)Cc1ccc2c(c1)OCCO2)c1ccccc1 (racemic) [Compound 1] , what is its reported pEC50?
Result: 5.06

Query: For CN1CCc2cc(C(CNC(=O)Nc3ccc(F)cc3)N(C)C)ccc21 (single isomer, unassigned) [Compound 7] , what is its reported pEC50?
Result: 5.98

Query: For Cc1ccccc1NC(=O)NCC(c1ccc2c(c1)CCO2)N(C)C (single isomer, unassigned) [Compound 9] , what is its reported pEC50?
Result: 4.74

Query: For Cc1ccccc1NC(=O)NCC(c1ccc2c(c1)CCO2)N(C)C (racemic) [Compound 3] , what is its reported pEC50?
Result: 5.44

Query: For CN1CCc2cc(C(CNC(=O)Nc3ccc(F)cc3)N(C)C)ccc21 (racemic) [Compound 2] , what is its reported pEC50?
Result: 5.78
